# experimentDescription: Indicator fluorescence response titration, dissociation constant for Na+
# Assay type: binding
# assayContext: Table 2, Formula (II) compounds, in solution
Documented Response to complexation (R = F/F0), R (Na^+) across a set of compounds
propertyMeasured: Response to complexation (R = F/F0), R (Na^+)

COCCN1CCOCCOCCOCCOc2cc(-c3cc4ccc(C(=O)OC)cc4[nH]3)ccc21 [Compound 120] = 2
COCCN1CCOCCOCCOCCOc2cc(-c3c4cc(F)c(=O)cc-4oc4cc(O)c(F)cc34)ccc21 [Compound 115] = 5.9
COC(=O)c1ccc2cc(-c3ccc4c(c3)OCCOCCOCCOCCN4CCN(C)C)[nH]c2c1 [Compound 126] = −1.2
COC(=O)CN1CCOCCOCCOCCOc2cc(-c3cc4ccc(C(=O)OC)cc4[nH]3)ccc21 [Compound 93] = 25
O=C([O-])CN1CCOCCOCCOCCOc2cc(-c3c4cc(F)c(=O)cc-4oc4cc(O)c(F)cc34)ccc21.[K+] [Compound 127] = 3.6
COC(=O)CN1CCOCCOCCOCCOc2cc(-c3c4cc(F)c(=O)cc-4oc4cc(O)c(F)cc34)ccc21 [Compound 86] = 28.5

====

# experimentDescription: Indicator fluorescence response titration, dissociation constant for Ca2+
# Type: binding
# assayContext: Table 1, Formula (I) compounds; approximate value; read-out: Dissociation Constant (target ion) Kd (Ca^2+)
propertyMeasured: Kd

Cc1ccc2c(c1)OCCOc1cc3cc(-c4ncc(C(=O)O)o4)oc3cc1N(CC(=O)O)CCOCCN2CC(=O)O = ~400 nM

====

# experimentDescription: Indicator fluorescence response titration, dissociation constant for Na+
# Format: binding
# assayContext: Table 2, Formula (II) compounds, in solution; 10 mM MOPS pH 7.05; read-out: Dissociation constant Kd (Na^+)
Documented Kd across a set of compounds
propertyMeasured: Kd (mM)

COCCN1CCOCCOCCOCCOc2cc(-c3cc4ccc(C(=O)OC)cc4[nH]3)ccc21 = 89
COC(=O)CN1CCOCCOCCOCCOc2cc(-c3cc4ccc(C(=O)OC)cc4[nH]3)ccc21 = 89
COC(=O)CN1CCOCCOCCOCCOc2cc(-c3c4cc(F)c(=O)cc-4oc4cc(O)c(F)cc34)ccc21 = 82
COCCN1CCOCCOCCOCCOc2cc(-c3c4cc(F)c(=O)cc-4oc4cc(O)c(F)cc34)ccc21 = 78.8
O=C([O-])CN1CCOCCOCCOCCOc2cc(-c3c4cc(F)c(=O)cc-4oc4cc(O)c(F)cc34)ccc21.[K+] = 20

====

# experimentDescription: Indicator fluorescence response titration, dissociation constant for Na+
# Type: binding
# assayContext: Table 1, Formula (I) compounds; approximate values; read-out: Dissociation Constant (target ion) Kd (Na^+)
Documented Kd across a set of compounds
propertyMeasured: Kd

COC(=O)CN1CCOCCN(CC(=O)OC)c2ccc(-c3cc4ccc(C(=O)OC)cc4[nH]3)cc2OCCOc2cc(C)ccc21 = ~30 mM
COC(=O)CN1CCOCCN(CC(=O)OC)c2cc(OCC(=O)O)c(-c3cc4ccc(C(=O)OC)cc4[nH]3)cc2OCCOc2cc(C)ccc21 = ~52 mM
Cc1ccc2c(c1)OCCOc1cc(-c3c4ccc(=[N+](C)C)cc-4oc4cc(N(C)C)ccc34)ccc1N(CC(=O)O)CCOCCN2CC(=O)[O-] = ~38 mM
COC(=O)CN1CCOCCN(CC(=O)OC)c2cc3oc(-c4ncc(C(=O)O)o4)cc3cc2OCCOc2cc(C)ccc21 = ~52 mM

====

# experimentDescription: Indicator fluorescence response titration, dissociation constant for Zn2+
# Assay type: binding
# assayContext: Table 1, Formula (I) compounds; approximate values; read-out: Dissociation Constant (target ion) Kd (Zn^2+)
Documented Kd across a set of molecules
propertyMeasured: Kd

Cc1ccc2c(c1)OCCOc1cc(-c3c4ccc(=[N+](C)C)cc-4oc4cc(N(C)C)ccc34)c(OCC(=O)O)cc1N(CC(=O)O)CCOCCN2CC(=O)O = ~0.1 µM
Cc1ccc2c(c1)OCCOc1cc(-c3c4cc(F)c(=O)cc-4oc4cc(O)c(F)cc34)ccc1N(CC(=O)O)CCOCCN2CC(=O)O = ~0.3 µM
Cc1ccc2c(c1)OCCOc1cc(-c3c4ccc(=[N+](C)C)cc-4oc4cc(N(C)C)ccc34)ccc1N(CC(=O)O)CCOCCN2CC(=O)[O-] = ~0.3 µM
Cc1ccc2c(c1)OCCOc1cc(C3=c4cc5c6c(c4Oc4c3cc3c7c4CCCN7CCC3)CCC[N+]=6CCC5)ccc1N(CC(=O)O)CCOCCN2CC(=O)[O-] = ~8 µM
Cc1ccc2c(c1)OCCOc1cc(-c3c4cc(F)c(=O)cc-4oc4cc(O)c(F)cc34)ccc1N(CC(N)=O)CCOCCN2CC(N)=O = ~600 µM
Cc1ccc2c(c1)OCCOc1cc(-c3c4ccc(=[N+](C)C)cc-4oc4cc(N(C)C)ccc34)ccc1N(CC(N)=O)CCOCCN2CC(N)=O = ~650 µM

====

# experimentDescription: Indicator fluorescence response titration, dissociation constant for K+
# Assay type: binding
# assayContext: Table 1, Formula (I) compounds; approximate value printed in nM; read-out: Dissociation Constant (target ion) Kd (K^+)
propertyMeasured: Kd

COC(=O)CN1CCOCCN(CC(=O)OC)c2ccc(-c3cc4ccc(C(=O)OC)cc4[nH]3)cc2OCCOc2cc(C)ccc21 = ~115 nM

====

# experimentDescription: Indicator fluorescence response titration, dissociation constant for Ca2+
# Type: binding
# assayContext: Table 1, Formula (I) compounds; approximate values; read-out: Dissociation Constant (target ion) Kd (Ca^2+)
propertyMeasured: Kd

Cc1ccc2c(c1)OCCOc1cc(-c3c4ccc(=[N+](C)C)cc-4oc4cc(N(C)C)ccc34)ccc1N(CC(=O)O)CCOCCN2CC(=O)[O-] = ~4 µM
Cc1ccc2c(c1)OCCOc1cc(-c3c4cc(F)c(=O)cc-4oc4cc(O)c(F)cc34)ccc1N(CC(=O)O)CCOCCN2CC(=O)O = ~5 µM
Cc1ccc2c(c1)OCCOc1cc(C3=c4cc5c6c(c4Oc4c3cc3c7c4CCCN7CCC3)CCC[N+]=6CCC5)ccc1N(CC(=O)O)CCOCCN2CC(=O)[O-] = ~7 µM

====

# experimentDescription: Indicator fluorescence response titration, dissociation constant for Na+
# Assay type: binding
# assayContext: Table 1, Formula (I) compounds; approximate values; read-out: Dissociation Constant (target ion) Kd (Na^+)
Documented Kd across a set of compounds
propertyMeasured: Kd

COC(=O)CN1CCOCCN(CC(=O)OC)c2cc(OCC(=O)[O-])c(-c3c4ccc(=[N+](C)C)cc-4oc4cc(N(C)C)ccc34)cc2OCCOc2cc(C)ccc21 = ~92 mM
CCCCCCCCCCCCCCCCCCNC(=O)COc1cc2c(cc1-c1c3ccc(=[N+](C)C)cc-3oc3cc(N(C)C)ccc13)OCCOc1cc(C)ccc1N(CC(=O)OC)CCOCCN2CC(=O)OC = ~14 mM
Cc1ccc2c(c1)OCCOc1cc(-c3c4ccc(=[N+](C)C)cc-4oc4cc(N(C)C)ccc34)c(OCC(=O)O)cc1N(CC(=O)O)CCOCCN2CC(=O)O = ~70 mM
COC(=O)CN1CCOCCN(CC(=O)OC)c2ccc(-c3c4cc(F)c(=O)cc-4oc4cc(O)c(F)cc34)cc2OCCOc2cc(C)ccc21 = ~60 mM
Cc1ccc2c(c1)OCCOc1cc(-c3c4cc(F)c(=O)cc-4oc4cc(O)c(F)cc34)ccc1N(CC(=O)O)CCOCCN2CC(=O)O = ~36 mM
COC(=O)CN1CCOCCN(CC(=O)OC)c2cc(OCC(=O)NC(CC(=O)O)C(=O)[O-])c(-c3c4ccc(=[N+](C)C)cc-4oc4cc(N(C)C)ccc34)cc2OCCOc2cc(C)ccc21 (stereo not shown) = ~85 mM
COC(=O)CN1CCOCCN(CC(=O)OC)c2ccc(-c3c4ccc(=[N+](C)C)cc-4oc4cc(N(C)C)ccc34)cc2OCCOc2cc(C)ccc21 = ~95 mM
